Biological target: EGFR (d746-750) (Homo sapiens (Human), UniProt P00533, DEL746-750)
Sequence (P00533 other isoform, or with tags, fused parts or gaps del 1-694/del 746-750 limits assumed): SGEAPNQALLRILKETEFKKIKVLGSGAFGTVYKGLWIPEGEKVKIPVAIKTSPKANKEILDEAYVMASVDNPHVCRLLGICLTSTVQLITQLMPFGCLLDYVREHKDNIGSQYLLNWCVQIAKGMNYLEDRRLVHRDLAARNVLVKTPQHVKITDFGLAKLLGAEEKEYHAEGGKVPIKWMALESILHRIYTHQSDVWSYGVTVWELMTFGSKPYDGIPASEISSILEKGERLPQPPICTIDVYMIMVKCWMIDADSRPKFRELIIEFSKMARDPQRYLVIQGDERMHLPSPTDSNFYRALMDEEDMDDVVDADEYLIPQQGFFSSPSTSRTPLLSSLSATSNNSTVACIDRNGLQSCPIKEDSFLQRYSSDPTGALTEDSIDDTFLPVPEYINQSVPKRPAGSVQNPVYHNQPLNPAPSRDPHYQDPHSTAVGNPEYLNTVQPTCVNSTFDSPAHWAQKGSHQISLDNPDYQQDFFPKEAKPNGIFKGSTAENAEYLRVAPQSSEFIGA
Experiment: Biochemical EGFR inhibition assay, EGFR (d746-750)
Details: Caliper mobility shift; 1.0 mM ATP or ATP Km; read-out: Enz EGFR_Exon19-del746-750 IC50
So I've got a bunch of compounds here, and I need their pIC50 values.
A value of pIC50 is the negative decimal logarithm of a concentration given in moles per litre.

Req: Form field - read-out: pIC50; system: EGFR (d746-750) (Homo sapiens (Human), UniProt P00533, DEL746-750); submitted item: COCc1cc2c(-c3cn(C)nc3-c3ccccc3)ncnc2cc1OC
Resp: 9.10

Req: Give EGFR (d746-750) (Homo sapiens (Human), UniProt P00533, DEL746-750) pIC50 for COc1cc2ncnc(-c3cn(C)nc3-c3ccccc3)c2cc1NC(=O)c1ccccc1N1CCNCC1
Resp: 8.57

Req: Form field - read-out: pIC50; system: EGFR (d746-750) (Homo sapiens (Human), UniProt P00533, DEL746-750); submitted item: COc1cc2ncnc(-c3cn(CC(F)F)nc3-c3ccccc3)c2cc1NC(=O)c1cccnc1
Resp: 8.89

Req: Record lookup: for EGFR (d746-750) (Homo sapiens (Human), UniProt P00533, DEL746-750), what pIC50 belongs to CCOc1cc2ncnc(-c3cn(C)nc3-c3ccc(F)cc3)c2nc1NC(=O)[C@@]12COC[C@@H]1C2 (single isomer, unassigned) ?
Resp: 9.40

Req: For EGFR (d746-750) (Homo sapiens (Human), UniProt P00533, DEL746-750), provide pIC50 of COc1cc2ncnc(-c3cn(C)nc3-c3ccccc3)c2cc1NC(=O)c1cn(C(F)(F)F)nc1C please.
Resp: 9.05

Req: Param readout= pIC50; system= EGFR (d746-750) (Homo sapiens (Human), UniProt P00533, DEL746-750); entry= COc1cc2ncnc(-c3cn(C)nc3-c3ccccc3)c2nc1O[C@H](C)c1cn(C)nn1 ; returns value.
Resp: 9.10

Req: Recall the recorded pIC50 for COc1cc2ncnc(-c3cn(C)nc3-c3ccccc3)c2nc1O[C@@H](C)c1cccnc1F with EGFR (d746-750) (Homo sapiens (Human), UniProt P00533, DEL746-750) and state it.
Resp: 8.85

Req: Request - read-out pIC50 | tested on EGFR (d746-750) (Homo sapiens (Human), UniProt P00533, DEL746-750) | compound COc1cc2ncnc(-c3cn(C)nc3-c3ccccc3)c2cc1NC(=O)C[C@H]1CCCO1
Resp: 8.77

Req: Request body: readout pIC50, system EGFR (d746-750) (Homo sapiens (Human), UniProt P00533, DEL746-750), query CCOc1cc2ncnc(-c3cn(C)nc3-c3ccccc3)c2cc1N1CCN(C)CC1 . Return the value.
Resp: 8.59

Req: What is its pIC50 for EGFR (d746-750) (Homo sapiens (Human), UniProt P00533, DEL746-750)? Entry: COc1cc2ncnc(-c3cn(C)nc3-c3ccccc3)c2cc1O[C@@H]1CCOC[C@H]1F
Resp: 8.74

Req: Recall the recorded pIC50 for COc1cc2ncnc(-c3cn(C)nc3-c3ccccc3)c2nc1NC(=O)C1(C(F)(F)F)CC1 with EGFR (d746-750) (Homo sapiens (Human), UniProt P00533, DEL746-750) and state it.
Resp: 9.05

Req: What reported pIC50 corresponds to CCOc1cc2ncnc(-c3cn(C)nc3-c3ccccc3F)c2nc1NC(=O)[C@]12C[C@H]1CN(C)C2 (single isomer, unassigned) on EGFR (d746-750) (Homo sapiens (Human), UniProt P00533, DEL746-750)?
Resp: 8.92

Req: // lookup pIC50 | system=EGFR (d746-750) (Homo sapiens (Human), UniProt P00533, DEL746-750) | key= COc1cc2ncnc(-c3cn(CC(F)F)nc3-c3ccccc3)c2cc1NC(=O)C(F)F
Resp: 9.05

Req: What is its pIC50 for EGFR (d746-750) (Homo sapiens (Human), UniProt P00533, DEL746-750)? Entry: COc1cc2ncnc(-c3cn(C)nc3-c3ccccc3)c2nc1NC(=O)C12CCCN1CCC2
Resp: 8.82

Req: Look up pIC50 with EGFR (d746-750) (Homo sapiens (Human), UniProt P00533, DEL746-750) for this compound: COc1cc2ncnc(-c3cn(C)nc3-c3cccc(O)c3)c2nc1NC(=O)C1(C(F)(F)F)CC1
Resp: 9.00
